Provide the recorded pIC50 for the entries that follow.
target: HLA-B*35:01; assay: IEDB peptide-MHC binding, purified MHC/competitive/radioactivity; bounds were set here for any values at or beyond the usual limits of such assays; conditions: source organism: Bordetella pertussis
Numbers only, as −log10 of the molar value.

GAASSYFEY = 5.57
EPASANTLL = 4.16

Now for another entry.
So what does the record say about pIC50 for "NALAWALML" ?
5.20

----------
target: HLA-B*07:02; test: IEDB peptide-MHC binding, purified MHC/competitive/radioactivity; bounds were set here for any values at or beyond the usual limits of such assays; settings: source organism: Bordetella pertussis
PARAMETER: IC50
Dear colleague, please send the value followed by its unit.

EPASANTLL = 15 µM

Lab note: next sequence to report on.
Which value of IC50 has been reported for "LKRPGSSPM" in the records?
3.84 µM
